# assay info: Human Liver Microsomal Stability (Test C)
# Format: in vitro ADME
# applied conditions: human, liver microsomes
Kindly state microsomal CLint for each of the entries shown.
Numbers only; they are read as µL/min/mg.

Documented microsomal CLint of COc1cc(F)c(O[C@H]2CC[C@@](C)(C(=O)O)CC2)cc1C(=O)N[C@@H]1CCC[C@]1(F)C(=O)Nc1cccc(S(=O)(=O)C(F)(F)F)c1 : 32

Documented microsomal CLint of COc1cc(F)c(O[C@H]2CC[C@@](C)(C(=O)O)CC2)cc1C(=O)Nc1c(C)cccc1C(=O)NCC1(C)CCC1 : 4.3

Documented microsomal CLint of COc1cc(F)c(O[C@H]2CC[C@@](C)(C(=O)O)CC2)cc1C(=O)N[C@@H]1CCC[C@@H]1C(=O)Nc1cccc(S(=O)(=O)C(F)(F)F)c1 : 64

Documented microsomal CLint of COc1cc(F)c(OC2CCC(C)(C(=O)O)CC2)cc1C(=O)NC1C2CCC(CC2)C1C(=O)NCC1(C)CCC1 (single isomer, unassigned) : 66

Documented microsomal CLint of COc1cc(F)c(O[C@H]2CC[C@@](C)(C(=O)O)CC2)cc1C(=O)N[C@@H]1[C@H]2CC[C@H](C2)[C@@H]1C(=O)Nc1ccc(F)c(S(F)(F)(F)(F)F)c1 : 61
